target: HDAC2 (Homo sapiens (Human)); test: HDAC enzyme assay, HDAC2; settings: read-out: HDAC2 IC50
Sequence (Q92769 whole entry): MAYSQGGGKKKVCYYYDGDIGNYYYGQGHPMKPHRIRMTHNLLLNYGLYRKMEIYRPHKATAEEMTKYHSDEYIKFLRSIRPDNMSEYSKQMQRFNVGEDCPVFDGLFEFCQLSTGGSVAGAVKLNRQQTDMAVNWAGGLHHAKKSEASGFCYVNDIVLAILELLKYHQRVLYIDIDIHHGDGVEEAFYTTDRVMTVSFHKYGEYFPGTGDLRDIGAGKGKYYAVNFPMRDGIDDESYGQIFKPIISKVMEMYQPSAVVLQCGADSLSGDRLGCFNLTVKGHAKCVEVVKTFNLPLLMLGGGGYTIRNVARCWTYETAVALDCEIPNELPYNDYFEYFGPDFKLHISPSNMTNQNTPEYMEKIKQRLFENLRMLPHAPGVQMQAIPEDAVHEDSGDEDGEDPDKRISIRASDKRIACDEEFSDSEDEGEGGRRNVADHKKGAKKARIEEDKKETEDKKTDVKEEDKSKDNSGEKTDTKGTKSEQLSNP
Measured Endpoint: IC50 (nM)

See these solved cases before continuing.
CC(Nc1ncc(C(=O)NO)cn1)(c1ccccc1)c1ccccc1 [Compound 79] | 1830
Cc1cc(C2(Nc3ncc(C(=O)NO)cn3)CC2)ccc1F [Compound 142] | 23
CC(Nc1ncc(C(=O)NO)cn1)c1ccncc1 (stereo not shown) [Compound 85] | 96
O=C(NO)c1cnc(NCc2ccc(-c3ccccc3)cc2)nc1 [Compound 107] | 9
COc1cccc(C2(Nc3ncc(C(=O)NO)cn3)CC2)c1 [Compound 120] | 53
CC1(Nc2ncc(C(=O)NO)cn2)CCCCC1 [Compound 110] | 1630

P = O=C(NO)c1cnc(Nc2ccc(Cl)cc2)nc1 [Compound 6]
Q = CC(C)(Nc1ncc(C(=O)NO)cn1)c1ccccc1 [Compound 50]
Request: // pick min by IC50: P , Q Field: selected label. Fill in the label of the entry you choose.
Response: P
(P: 231 nM, Q: 1520 nM)

Reference for the values: patent US8614223B2
